Test: Human HepG2 cell viability assay in 384 well format
Type: toxicity, cell-based
Parameters: dose 125 nL, time 70.5 hour; concentration not given beside the values
Settings: HepG2 cells, read-out: Inhibition

MOLECULE: Cc1ccc(C(CC(=O)O)NC(=O)CCc2cccs2)cc1 (centres undefined)
cytotoxicity at 70.5 h, %: -1.09
--
MOLECULE: CN(CC(=O)NCc1cc2ccccc2o1)S(C)(=O)=O
cytotoxicity at 70.5 h, %: -0.935
--
MOLECULE: COc1ccc(C)cc1CC(=O)NC1(C#N)CCOCC1
cytotoxicity at 70.5 h, %: 29.1
--
MOLECULE: CN(C)c1cccc(CNC(=O)Nc2cc(C#N)ccc2Cl)n1
cytotoxicity at 70.5 h, %: -4.82

---

Test: Human HepG2 cell viability assay in 384 well format
Type: toxicity, cell-based
Design: dose 125 nL, time 70.5 hour; concentration not given beside the values
Conditions: HepG2 cells, read-out: Inhibition
# cytotoxicity at 70.5 h annotations

COMPOUND: COc1ccnc(N2CCN(C(=O)c3csc(C4CC4)n3)CC2)n1
cytotoxicity at 70.5 h, %: -6.71

COMPOUND: O=C(O)c1cc(-c2ccncc2)cc(S(=O)(=O)N2CCCCCC2)c1
cytotoxicity at 70.5 h, %: -18.9

COMPOUND: COc1ccccc1CNC(=O)C(C)n1cc2c(n1)c(C)nn2C (stereo not drawn)
cytotoxicity at 70.5 h, %: -6.09

---

Experiment: Human HepG2 cell viability assay in 384 well format
Assay type: toxicity, cell-based
Set-up: dose 125 nL, time 70.5 hour; concentration not given beside the values
Conditions: HepG2 cells, read-out: Inhibition
READOUT LABEL: cytotoxicity at 70.5 h (%)

COMPOUND: N#CCCCS(=O)(=O)NC1(c2cccc(Cl)c2)CC1
READOUT LABEL: cytotoxicity at 70.5 h
RESULT: -9.01
//
COMPOUND: CC(NCc1cnn(C)c1)c1noc(-c2ccc(Cl)cc2)n1 (stereo unspecified)
READOUT LABEL: cytotoxicity at 70.5 h
RESULT: -5.15
//
COMPOUND: NC(=O)C1CCN(CC(=O)N2CCCC2c2ccsc2)CC1 (stereo unspecified)
READOUT LABEL: cytotoxicity at 70.5 h
RESULT: -4.16
//
COMPOUND: C/C=C(\C)CN1C[C@H](NC(=O)c2cnc(O)cn2)C[C@H]1C(=O)NCC
READOUT LABEL: cytotoxicity at 70.5 h
RESULT: -9.9
//
COMPOUND: Cc1nccc([C@@H]2C[C@@H]3CCN(S(=O)(=O)N(C)C)C[C@H]3O2)n1
READOUT LABEL: cytotoxicity at 70.5 h
RESULT: 1.05
//
COMPOUND: CN(C)C(=O)N1Cc2nnn(C)c2C(COCC2CC2)C1 (stereo unspecified)
READOUT LABEL: cytotoxicity at 70.5 h
RESULT: -6.79
//
COMPOUND: CCN(C)c1ncnc2c1CCN(C(=O)c1ccoc1C)CC2
READOUT LABEL: cytotoxicity at 70.5 h
RESULT: -10.9
//
COMPOUND: CN1CCc2c(C#N)c(NCc3cccnc3)n3cnnc3c2C1
READOUT LABEL: cytotoxicity at 70.5 h
RESULT: -27
//
COMPOUND: COc1ncccc1CNC(=O)N1CCC(CNC(C)=O)CC1
READOUT LABEL: cytotoxicity at 70.5 h
RESULT: -8.01
//
COMPOUND: CCOC(=O)C1CCCN(Cc2cc(C#N)n(C)c2C)C1 (stereo unspecified)
READOUT LABEL: cytotoxicity at 70.5 h
RESULT: -11.7
//
COMPOUND: COc1ccc(CNC(=O)Nc2cccnc2N2CCCC2)cc1
READOUT LABEL: cytotoxicity at 70.5 h
RESULT: 20.6
//
COMPOUND: Cc1cc(-c2nn(C)c(Cl)c2CN2Cc3ccccc3C(O)C2)no1 (stereo unspecified)
READOUT LABEL: cytotoxicity at 70.5 h
RESULT: -11.3
//
COMPOUND: NC(=O)c1cn[nH]c1NC(=O)c1ccc2c(c1)OCO2
READOUT LABEL: cytotoxicity at 70.5 h
RESULT: 1.1
//
COMPOUND: Cn1cnc(S(=O)(=O)N2CCCC2c2ccnc3nccn23)c1 (stereo unspecified)
READOUT LABEL: cytotoxicity at 70.5 h
RESULT: 0.418
//
COMPOUND: CC(C)Nc1nc2c(cc1C(=O)NCC1CC1)CCN(CC1CC1)CC2
READOUT LABEL: cytotoxicity at 70.5 h
RESULT: 25.7
//
COMPOUND: COc1cc(C(=O)N(Cc2ccco2)C2CC2)cc2c1OCCO2
READOUT LABEL: cytotoxicity at 70.5 h
RESULT: -0.578
//
COMPOUND: CCn1ncc(S(=O)(=O)N2CCCC3(CC=CNC3=O)C2)c1C (stereo unspecified)
READOUT LABEL: cytotoxicity at 70.5 h
RESULT: -1.6
//
COMPOUND: c1ccc(Cn2cc(CNc3ncnc4c3CCNCC4)cn2)cc1
READOUT LABEL: cytotoxicity at 70.5 h
RESULT: -15
//
COMPOUND: CCc1ncc(C(=O)N2C[C@@H](C)O[C@@H](C)C2)cn1
READOUT LABEL: cytotoxicity at 70.5 h
RESULT: -5
//
COMPOUND: COc1cc(C2CC(=O)Oc3cc(C)[nH]c(=O)c32)ccc1OCC(=O)O (stereo unspecified)
READOUT LABEL: cytotoxicity at 70.5 h
RESULT: -14.1
//
COMPOUND: Cc1csc(N2CCCN(C(=O)C(C(C)C)n3cncn3)CC2)n1 (stereo unspecified)
READOUT LABEL: cytotoxicity at 70.5 h
RESULT: 2.24
//
COMPOUND: Cc1ccc2nc(NCCN3CCOCC3)n(C)c(=O)c2c1
READOUT LABEL: cytotoxicity at 70.5 h
RESULT: 0.444
//
COMPOUND: CN(C)C1COC2(CCN(S(=O)(=O)c3ccc(F)cc3)CC2)C1 (stereo unspecified)
READOUT LABEL: cytotoxicity at 70.5 h
RESULT: -13.4
//
COMPOUND: CN1C(=O)[C@H]2CC[C@@H]1CN(S(=O)(=O)c1ccc(Cl)cc1Cl)C2
READOUT LABEL: cytotoxicity at 70.5 h
RESULT: -10.4
//
COMPOUND: CCCn1cnc2c1CN(S(=O)(=O)Cc1ccccc1)[C@H](C(=O)OC)C2
READOUT LABEL: cytotoxicity at 70.5 h
RESULT: 0.651
//
COMPOUND: CCNc1ncc(CN2C[C@H]3CC[C@@H]2CN(C(=O)C2CCC2)C3)cn1
READOUT LABEL: cytotoxicity at 70.5 h
RESULT: -7.7

Taken from ChEMBL document CHEMBL3507680.
